Hello, the source for this data is patent US11964986B1, in case you need it.

- TARGET_OR_SYSTEM: PAPD7 (Homo sapiens)
- Sequence (Q5XG87 whole entry): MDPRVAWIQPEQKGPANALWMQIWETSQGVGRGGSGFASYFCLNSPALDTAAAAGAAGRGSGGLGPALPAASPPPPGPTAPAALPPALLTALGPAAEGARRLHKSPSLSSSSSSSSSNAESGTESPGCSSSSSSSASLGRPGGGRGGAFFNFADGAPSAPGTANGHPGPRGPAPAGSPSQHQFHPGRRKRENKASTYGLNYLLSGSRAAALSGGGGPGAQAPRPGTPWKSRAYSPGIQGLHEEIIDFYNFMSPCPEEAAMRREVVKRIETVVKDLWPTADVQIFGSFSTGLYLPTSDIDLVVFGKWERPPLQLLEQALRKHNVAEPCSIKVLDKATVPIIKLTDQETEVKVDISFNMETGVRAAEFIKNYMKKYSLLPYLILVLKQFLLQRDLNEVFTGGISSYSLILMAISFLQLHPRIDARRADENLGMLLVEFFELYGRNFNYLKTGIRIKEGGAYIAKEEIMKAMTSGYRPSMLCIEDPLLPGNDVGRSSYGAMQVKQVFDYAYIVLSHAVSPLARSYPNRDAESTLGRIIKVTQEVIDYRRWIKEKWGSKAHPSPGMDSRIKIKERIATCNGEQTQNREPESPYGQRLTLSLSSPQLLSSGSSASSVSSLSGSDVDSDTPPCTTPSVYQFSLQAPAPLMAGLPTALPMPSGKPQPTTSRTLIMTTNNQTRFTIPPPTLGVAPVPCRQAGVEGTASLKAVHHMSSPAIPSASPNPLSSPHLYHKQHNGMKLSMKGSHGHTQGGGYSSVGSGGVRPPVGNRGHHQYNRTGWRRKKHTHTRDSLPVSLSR
- TEST: HBsAg ELISA in HepG2/2.2.15 PAPD5 KO cells (PAPD7 inhibitory activity)
- Assay type: cell-based
- EXPERIMENTAL_CONTEXT: Table 3, HBsAg secretion, 4 days, read-out: pIC50 PAPD7 (PAPD5 KO cells) (converted)
RESULT_TYPE: IC50 (nM)
Respond numerically; units are nM and should not be typed.

Req: Which IC50 value belongs to COCCCOc1cc2c(nc1OC)-c1[nH]c(=O)c(C(=O)O)cc1C1(CCCC1)O2 ?
Resp: 316

Req: What about COCCCOc1cc2c(nc1OC)-c1c(cc(C(=O)O)c(=O)n1C)C(C(C)C)O2 (racemic) ?
Resp: 12.6

Req: What about COCCCOc1cc2c(nc1C1CC1)-c1[nH]c(=O)c(C(=O)O)cc1C(C(C)(C)C)O2 (racemic) ?
Resp: 0.631

Req: What about COCCCOc1cc2c(nc1OC)-c1[nH]c(=O)c(C(=O)O)cc1C(C(C)(C)C)O2 (racemic) ?
Resp: 10
